From: ChEMBL document CHEMBL3992553

assay: Cytotoxicity against human FS4-LTM cells assessed as reduction in cell viability after 24 hrs by WST1 assay; type: cell-based; conditions: human, FS4-LTM cells
So I've got a bunch of molecules here, and I need their IC90 at 24 h values.

IN: Bench note: what IC90 at 24 h did CC1(C(=O)NC2CCCCC2)CSCC(=O)N1/N=C/c1ccc([N+](=O)[O-])o1 (stereo not drawn) show?
OUT: ≥ 100 µM

IN: Bench note: what IC90 at 24 h did CC1(C(=O)NC2CCCCC2)CN(S(=O)(=O)c2ccccc2[N+](=O)[O-])CC(=O)N1/N=C/c1ccc([N+](=O)[O-])o1 (stereo not drawn) show?
OUT: > 100 µM

IN: Bench note: what IC90 at 24 h did CC1(C(=O)NC2CCCCC2)CCCC(=O)N1/N=C/c1ccc([N+](=O)[O-])o1 (stereo not drawn) show?
OUT: ≥ 100 µM

---

tested on: Acinetobacter baumannii; assay: Antibacterial activity against Acinetobacter baumannii DSM 30007 after 18 hrs; assay type: functional; details: DSM 30007, 18 h
So I've got a bunch of molecules here, and I need their MIC values.

IN: Bench note: what MIC did O=C(O)c1cn(C2CC2)c2cc(N3CCNCC3)c(F)cc2c1=O show?
OUT: 0.2 µg/mL

IN: Bench note: what MIC did CC1(C(=O)NC2CCCCC2)CSCC(=O)N1/N=C/c1ccc([N+](=O)[O-])o1 (stereo not drawn) show?
OUT: > 100 µM

IN: Bench note: what MIC did CC1(C(=O)NCc2ccccc2)CSCC(=O)N1/N=C/c1ccc([N+](=O)[O-])o1 (stereo not drawn) show?
OUT: > 100 µM

---

tested on: Pseudomonas aeruginosa; test: Antibacterial activity against Pseudomonas aeruginosa PA7 DSM 24068 after 18 hrs; format: functional; conditions: PA7 DSM 24068, 18 h
So I've got a bunch of compounds here, and I need their MIC values.

IN: Bench note: what MIC did CC1(C(=O)NCc2ccccc2)CSCC(=O)N1/N=C/c1ccc([N+](=O)[O-])o1 (centres undefined) show?
OUT: > 100 µM

IN: Bench note: what MIC did NCC[C@H](O)C(=O)N[C@@H]1C[C@H](N)[C@@H](O[C@H]2O[C@H](CN)[C@@H](O)[C@H](O)[C@H]2O)[C@H](O)[C@H]1O[C@H]1O[C@H](CO)[C@@H](O)[C@H](N)[C@H]1O show?
OUT: 4.5 µg/mL

IN: Bench note: what MIC did CC1(C(=O)NC2CCCCC2)CN(S(C)(=O)=O)CC(=O)N1/N=C/c1ccc([N+](=O)[O-])o1 (centres undefined) show?
OUT: > 100 µM

IN: Bench note: what MIC did CC(C)(C)NC(=O)C1(C)COCC(=O)N1/N=C/c1ccc([N+](=O)[O-])o1 (centres undefined) show?
OUT: > 100 µM

---

test system: Staphylococcus aureus; assay: Antibacterial activity against methicillin-resistant Staphylococcus aureus RKI 11-02670 after 18 hrs; assay type: functional; conditions: RKI 11-02670, 18 h
readout: MIC (µM)
# unit: µM | format: bare number

IN: Value wanted: MIC (Staphylococcus aureus) of entry CC(C)(C)NC(=O)C1(C)CCCC(=O)N1/N=C/c1ccc([N+](=O)[O-])o1 (configuration not stated)
OUT: 100

IN: Value wanted: MIC (Staphylococcus aureus) of entry CC1(C(=O)NCc2ccc(Cl)cc2)CCCC(=O)N1/N=C/c1ccc([N+](=O)[O-])o1 (configuration not stated)
OUT: 100

IN: Value wanted: MIC (Staphylococcus aureus) of entry CC1(C(=O)NC2CCCCC2)CN(S(=O)(=O)c2ccccc2[N+](=O)[O-])CC(=O)N1/N=C/c1ccc([N+](=O)[O-])o1 (configuration not stated)
OUT: 100

IN: Value wanted: MIC (Staphylococcus aureus) of entry CC1(C(=O)NC2CCCCC2)CCCC(=O)N1/N=C/c1ccc([N+](=O)[O-])o1 (configuration not stated)
OUT: 100
